- MEASUREMENT_TARGET: human CB1 receptor (Homo sapiens)
- Construct: expressed in transfected cells; host or cells: SK-N-MC cells, stably transfected with pcDNA3 CB-1 (human); semi-purified membrane pellet
- Sequence (P21554 whole entry): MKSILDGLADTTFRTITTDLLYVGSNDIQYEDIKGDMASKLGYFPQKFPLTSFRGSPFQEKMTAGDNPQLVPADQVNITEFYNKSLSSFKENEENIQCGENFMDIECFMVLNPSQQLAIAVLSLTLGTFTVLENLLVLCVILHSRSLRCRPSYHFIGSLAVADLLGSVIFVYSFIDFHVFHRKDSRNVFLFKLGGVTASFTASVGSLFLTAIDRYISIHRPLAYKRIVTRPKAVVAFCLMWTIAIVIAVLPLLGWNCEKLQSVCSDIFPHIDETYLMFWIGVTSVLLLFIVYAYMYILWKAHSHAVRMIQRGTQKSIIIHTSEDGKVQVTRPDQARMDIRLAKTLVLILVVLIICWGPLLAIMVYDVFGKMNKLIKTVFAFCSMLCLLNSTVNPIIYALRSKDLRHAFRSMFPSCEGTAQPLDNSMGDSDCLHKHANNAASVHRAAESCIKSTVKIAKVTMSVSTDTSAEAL
- TEST_METHOD_NOTES: Functional cell-based assay, CB1 receptor mediated change in CRE β-gal expression (adenylate cyclase activity)
MEASUREMENT_NAME: EC50 (nM)

>>> print(df.to_string())
                                   molecule  value_measured
0  O=S(=O)(/C=C/c1nn(-c2ccc(F)cc2F)c2c1CCC2Cc1cccc(F)c1)NN1CCCCC1 (stereo not shown)            5600
1  C[C@@H](NC(=O)c1nn(-c2ccc(F)cc2F)c2c1CCC2Cc1cccc(F)c1)c1ccccc1 (stereo partly shown)             200
2  C[C@H](NC(=O)c1nn(-c2ccc(F)cc2F)c2c1CCC2Cc1cccc(F)c1)c1ccccc1 (stereo partly shown)           10000
3  O=C(NN1CCCCC1)c1nn(-c2ccc(F)cc2F)c2c1CCC2Cc1cccc(F)c1 (stereo not shown)             200
